Biological target: T1, constitutively activated full-length talin mutant tlnM3 (M319A, T1767L, E1770K) (mouse, UniProt P26039 1-2541, M319A | T1767L | E1770K)
T1 construct: talin (talin-1), mouse, full length 1-2541, in pET28T; also called active talin; talinFL TM; source: E. coli BL21 (DE3), purified (nickel column, Superose-6 gel filtration)
T1 sequence (P26039 whole entry M319A/T1767L/E1770K): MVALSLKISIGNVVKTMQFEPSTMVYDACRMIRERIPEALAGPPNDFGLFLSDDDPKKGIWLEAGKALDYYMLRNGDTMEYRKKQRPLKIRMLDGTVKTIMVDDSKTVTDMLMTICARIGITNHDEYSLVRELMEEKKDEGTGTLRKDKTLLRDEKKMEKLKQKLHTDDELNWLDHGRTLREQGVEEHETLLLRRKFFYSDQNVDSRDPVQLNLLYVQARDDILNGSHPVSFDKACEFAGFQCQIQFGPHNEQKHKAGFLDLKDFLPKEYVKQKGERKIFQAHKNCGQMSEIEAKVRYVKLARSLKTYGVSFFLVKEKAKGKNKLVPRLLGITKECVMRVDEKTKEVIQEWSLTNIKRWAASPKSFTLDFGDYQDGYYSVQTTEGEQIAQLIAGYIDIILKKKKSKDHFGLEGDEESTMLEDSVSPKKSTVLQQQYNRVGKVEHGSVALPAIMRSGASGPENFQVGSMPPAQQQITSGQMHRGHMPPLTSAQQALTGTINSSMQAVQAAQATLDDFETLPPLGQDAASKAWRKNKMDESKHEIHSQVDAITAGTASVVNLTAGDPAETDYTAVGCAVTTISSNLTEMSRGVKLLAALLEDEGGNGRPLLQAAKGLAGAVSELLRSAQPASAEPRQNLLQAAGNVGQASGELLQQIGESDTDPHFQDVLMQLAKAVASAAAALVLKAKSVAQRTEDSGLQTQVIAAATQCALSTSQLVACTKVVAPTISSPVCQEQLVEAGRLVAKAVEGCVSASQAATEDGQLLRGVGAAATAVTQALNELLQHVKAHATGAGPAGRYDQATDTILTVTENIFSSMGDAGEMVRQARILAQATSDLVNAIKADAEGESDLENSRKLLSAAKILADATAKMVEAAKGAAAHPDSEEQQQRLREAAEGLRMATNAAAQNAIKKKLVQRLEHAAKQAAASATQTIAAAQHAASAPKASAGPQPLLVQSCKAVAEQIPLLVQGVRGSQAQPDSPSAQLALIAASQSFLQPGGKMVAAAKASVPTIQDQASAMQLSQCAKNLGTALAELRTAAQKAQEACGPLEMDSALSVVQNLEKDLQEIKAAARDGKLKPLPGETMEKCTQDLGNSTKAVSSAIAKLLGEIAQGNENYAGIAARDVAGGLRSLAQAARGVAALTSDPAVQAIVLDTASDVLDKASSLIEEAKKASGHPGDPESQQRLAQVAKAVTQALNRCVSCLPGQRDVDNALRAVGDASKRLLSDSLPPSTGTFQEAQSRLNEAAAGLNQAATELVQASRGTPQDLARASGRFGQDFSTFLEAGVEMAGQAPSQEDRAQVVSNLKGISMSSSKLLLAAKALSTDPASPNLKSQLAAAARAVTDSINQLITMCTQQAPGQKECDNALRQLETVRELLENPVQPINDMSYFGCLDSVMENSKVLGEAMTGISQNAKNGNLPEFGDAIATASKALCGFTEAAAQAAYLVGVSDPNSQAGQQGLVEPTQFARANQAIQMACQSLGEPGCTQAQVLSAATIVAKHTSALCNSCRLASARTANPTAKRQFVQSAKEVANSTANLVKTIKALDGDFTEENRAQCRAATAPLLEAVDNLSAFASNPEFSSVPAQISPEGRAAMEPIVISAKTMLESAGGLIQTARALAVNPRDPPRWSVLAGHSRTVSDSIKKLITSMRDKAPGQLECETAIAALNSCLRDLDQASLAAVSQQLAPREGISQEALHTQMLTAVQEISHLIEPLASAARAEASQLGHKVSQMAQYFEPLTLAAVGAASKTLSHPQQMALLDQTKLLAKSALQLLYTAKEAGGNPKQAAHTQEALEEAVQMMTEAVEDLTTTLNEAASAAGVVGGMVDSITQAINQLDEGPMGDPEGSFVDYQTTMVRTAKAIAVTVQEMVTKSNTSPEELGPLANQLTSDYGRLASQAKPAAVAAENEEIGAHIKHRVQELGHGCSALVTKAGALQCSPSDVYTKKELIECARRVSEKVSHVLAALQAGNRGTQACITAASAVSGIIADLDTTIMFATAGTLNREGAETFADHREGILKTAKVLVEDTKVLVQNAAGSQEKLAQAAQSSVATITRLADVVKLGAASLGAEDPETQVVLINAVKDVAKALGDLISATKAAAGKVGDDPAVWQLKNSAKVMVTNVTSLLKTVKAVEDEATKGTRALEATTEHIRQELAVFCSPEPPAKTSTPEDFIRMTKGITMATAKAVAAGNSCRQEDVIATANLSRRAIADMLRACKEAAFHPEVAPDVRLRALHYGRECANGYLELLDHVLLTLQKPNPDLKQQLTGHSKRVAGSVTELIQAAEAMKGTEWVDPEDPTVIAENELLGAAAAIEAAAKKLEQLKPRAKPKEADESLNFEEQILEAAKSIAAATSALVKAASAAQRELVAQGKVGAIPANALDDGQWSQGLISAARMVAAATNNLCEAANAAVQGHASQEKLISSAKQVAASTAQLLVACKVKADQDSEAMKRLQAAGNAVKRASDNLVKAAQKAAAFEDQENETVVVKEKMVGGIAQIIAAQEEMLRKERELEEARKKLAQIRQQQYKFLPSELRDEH
Assay: SPR; GST-integrin beta3CT amine-coupled to CM5, talinH or tlnM3 (0–125 nM) flowed over; 50 mM sodium phosphate pH 6.8, 150 mM NaCl, 0.05% Tween 20, 0.03% BSA, 25 °C
Details: both partners purified
No end group written: not given here.
parameter measured: Kd

The binder identified as {GST}-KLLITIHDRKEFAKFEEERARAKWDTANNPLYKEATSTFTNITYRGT (domain or fragment, UniProt P05106 742-788, looked up, integrin β3 cytoplasmic tail; also called integrin-β3 CT; GST-integrin beta3CT; source: E. coli BL21 (DE3), purified) [GST-integrin beta3 cytoplasmic tail] registered its Kd at ~14.5 nM
